Data provenance is PubChem BioAssay (NCI).

Test: NCI Yeast Anticancer Drug Screen. Data for the mec2-1 strain (AID 157)
Settings: S. cerevisiae mec2-1 strain, at 5.0 µM (retest, dose inferred, filed as 0.5), stronger effect = higher value
Compounds without any hit were thinned out: in the full panel of roughly 79,000, 15% have a hit.
Recorded measurements of growth inhibition, one per entry
Only the number, expressed in %, is required.

// solved cases for growth inhibition follow
>  <compound>
CN(C)C=Nc1ccc2nonc2c1

>  <experimentalEndpoint>
growth inhibition

>  <endpointResult>
-15

$$$$
>  <compound>
CC(=O)NNc1nc(C)c(C(=O)NNC(=O)C(=O)Nc2c(C)cccc2C(C)C)s1

>  <experimentalEndpoint>
growth inhibition

>  <endpointResult>
1

$$$$
>  <compound>
O=C(OCCC1CCCCC1)c1cc([N+](=O)[O-])cc([N+](=O)[O-])c1

>  <experimentalEndpoint>
growth inhibition

>  <endpointResult>
13

$$$$
>  <compound>
O=C1C=CC(=O)C2C1Cc1ccccc1C2c1ccccc1 (stereo unspecified)

>  <experimentalEndpoint>
growth inhibition

>  <endpointResult>
26

$$$$

Exercise: Fill in: growth inhibition of CCCN(Cc1ccccc1)S(=O)(=O)c1ccc(C)cc1 is ___
Key: -4

Exercise: Fill in: growth inhibition of Cc1ccc(C(=O)C(CN(C)C)CN(C)C)cc1C is ___
Key: 12

Exercise: Fill in: growth inhibition of O=C(CCCN1CCC(C(O)c2ccc(F)cc2)CC1)c1ccc(F)cc1 (stereo unspecified) is ___
Key: 33

Exercise: Fill in: growth inhibition of C/C=C/CSc1cc(NC(=S)c2ccsc2C)ccc1Cl is ___
Key: -1

Exercise: Fill in: growth inhibition of CC1(C)C2CCC1(CS(=O)O)C(=O)C2.[Ag] (stereo unspecified) is ___
Key: 100

Exercise: Fill in: growth inhibition of CC(C)C(O)(C(=O)OCN1C(=O)C2C3C=CC(C2C1=O)C1C2C(=O)N(COC(=O)C(O)(C(C)C)C(C)O)C(=O)C2C31)C(C)O (stereo unspecified) is ___
Key: -2

Exercise: Fill in: growth inhibition of CCN(c1ccc(C=O)cc1)c1ccc([N+](=O)[O-])cc1[N+](=O)[O-] is ___
Key: -1
